B1: tRNA (parent)
chain: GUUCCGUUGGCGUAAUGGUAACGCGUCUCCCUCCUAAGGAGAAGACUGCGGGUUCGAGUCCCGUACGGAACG

variants of: B1; test: yeast fitness, log relative to wild type (ln ratio); higher = fitter; tRNA-Arg(CCU), competitive growth, 37 C, 1 M NaCl
endpoint: yeast fitness (ln)
Respond with the number and no other words.

Examples with their reported yeast fitness (ln) follow.
G1A G6A C27U C66U A70G: -0.187
U2G G6U C27U A43C C46U C66A: -0.0517
G1A U2G G6U C27U A43C C46U C66U A70U C71U: -0.647

The recorded yeast fitness (ln) for entry G6A C46U C66A A69G A70G C71U equals -0.185

The recorded yeast fitness (ln) for entry G6A A70G equals -0.194

The recorded yeast fitness (ln) for entry G1A C27U C46U C66U A70G C71U equals -0.223

The recorded yeast fitness (ln) for entry G1A U2G C27U A43C C46U C66U A70U equals -0.214

The recorded yeast fitness (ln) for entry G1A G6U C66U A69G A70G equals -0.288

The recorded yeast fitness (ln) for entry G1A G6U C46U C66A A69G A70U equals -0.106

The recorded yeast fitness (ln) for entry U2G G6A C27U A43C C46U equals -0.0569

The recorded yeast fitness (ln) for entry U2C C27U C66U C71U equals -0.177

The recorded yeast fitness (ln) for entry U2G C27U A70U C71U equals -0.0745
